B1: HDV Ribozyme (parent)
chain: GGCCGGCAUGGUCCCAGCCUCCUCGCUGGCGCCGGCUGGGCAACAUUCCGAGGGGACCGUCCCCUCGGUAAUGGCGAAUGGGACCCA

# Variants of: B1
# Assay method text: self-cleavage, relative activity (ratio to wild type); higher = more cleavage; co-transcriptional

Entry sequence: GCCCGGCAUGGUCCCAGCCUCCUCGCUGGCGCCGGCUGGGCAACAUUCCGAGGGGACCGUCCCCUCGGUAAUGGCGAAUGGGAGCCA
self-cleavage: 0.0639
//
Entry sequence: GGCCGGCAUGGUCCUAGCCUCCUCGCUGGCGCCGGCUGGGCAACAUUCCGAGGGGACCGUCCCCUCGGUGAUGGCGAAUGGGACCCA
self-cleavage: 1.07
//
Entry sequence: GGCCGGCAUGGUCCCAGCCUCCUCGCUGGCGCAGGCUGGGCAACAUUCAGAGGGGACCGUCCCCUCGGUAAUGGCGAAUGGGACCCA
self-cleavage: 0.364
//
Entry sequence: GGUCGGCAUGGUCCCAGCCUUCUCGCUGGCGCCGGCUGGGCAACAUUCCGAGGGGACCGUCCCCUCGGUAAUGGCGAAUGGGACCCA
self-cleavage: 0.101
//
Entry sequence: GGCCGGCAUGGUCCCAGCCUCAUCGCUGGCGCCGGCUGGGCAACAUUCCGAGGGGACCAUCCCCUCGGUAAUGGCGAAUGGGACCCA
self-cleavage: 0.359
//
Entry sequence: GGCCGGCAUCGUCCCAGCCUCCUCGCUGGCGCCGGCUGGGCAACAUUCCGAGGGGACCGUCCCCUCUGUAAUGGCGAAUGGGACCCA
self-cleavage: 0.782
//
Entry sequence: GGCCGGUAUGGUCCCAGCCUCCUCGCUGGCGCCGGCUGGGCAACUUUCCGAGGGGACCGUCCCCUCGGUAAUGGCGAAUGGGACCCA
self-cleavage: 0.415
//
Entry sequence: GGCCGGCAUGGUCCCAGCCUCCUCGCUGGCGCCGGCUGGGCAACAUUCCGAGGGGACCGUCCGCUCGGUAAUGGCGAAUGGCACCCA
self-cleavage: 0.136
//
Entry sequence: GGCCGGCACGGUUCCAGCCUCCUCGCUGGCGCCGGCUGGGCAACAUUCCGAGGGGACCGUCCCCUCGGUAAUGGCGAAUGGGACCCA
self-cleavage: 0.453
//
Entry sequence: GGCCGGCAUGGGCCCAGCCUCCUCGCUGGCGCCGGAUGGGCAACAUUCCGAGGGGACCGUCCCCUCGGUAAUGGCGAAUGGGACCCA
self-cleavage: 0.156
//
Entry sequence: GGCCGGCAUGGUCCCAGCCUCCUCGCUGGCGCCGGCUAGGCAACAUUCCGAGGGGACCGUCCCCUCGGUAAUGGCGAAUGGGACCUA
self-cleavage: 0.138
//
Entry sequence: GGCCGGCAUGGUCCCAGCCUCCUCGCUGGCGCCGGCUGGGCAACAUUCCGAGGGGACCGUCCCCUCGGUAAUGGCGAAUAGGAUCCA
self-cleavage: 0.197
//
Entry sequence: GGCCGGCAUGGUCCCAGCCUCCUCGCUGGCGCCGGCUGGGCAACAUUCCGAGGGGACCGUCCCCUCAGUAAUGGAGAAUGGGACCCA
self-cleavage: 0.185
//
Entry sequence: GGCCGGCAUGGUCCCAGCCUCCUCGCUGGCGCCGGCUAGCCAACAUUCCGAGGGGACCGUCCCCUCGGUAAUGGCGAAUGGGACCCA
self-cleavage: 0.138
//
Entry sequence: GGCCGGCAUGGUCCCAGCCUCCUCGCUGGCGCCAGCUGGGCAACAUUCCGAGGGGACCGUCCCCUCCGUAAUGGCGAAUGGGACCCA
self-cleavage: 0.0707
//
Entry sequence: GGCCGGCAUGGUCCCAGCCUCCUCGCUGGCGCCGGCUGGCCAACAUUCCGAUGGGACCGUCCCCUCGGUAAUGGCGAAUGGGACCCA
self-cleavage: 0.246
//
Entry sequence: GGCCGGCAUGGUCCCAGCCUCCUCGCAGUCGCCGGCUGGGCAACAUUCCGAGGGGACCGUCCCCUCGGUAAUGGCGAAUGGGACCCA
self-cleavage: 0
//
Entry sequence: GGCCGGCACGGUCCCAGCCUCCUCGCUGGCGCCGGCUGGGCAACAUUCCGAGGGGACCGUCCCCUCGGUAAUGGCGAAUGGGUCCCA
self-cleavage: 0.525
//
Entry sequence: GGCCGGCAUGGUCCCAGCCUCCUCGCUGGCGCCGGCUGGGCAACAUUCCGAGGGCACCGUCCCCUCGGUAAUGGCGAGUGGGACCCA
self-cleavage: 0.525
//
Entry sequence: GGCCGGCAUGGUCCCAGCCUCCUCGCUGGCUCCGGCUGGGCAACAUUCCGAGGCGACCGUCCCCUCGGUAAUGGCGAAUGGGACCCA
self-cleavage: 0.197
//
Entry sequence: GGCCGGCAUGGUCCCAGUCUCCUCGCUGGCGCCGGCUGGGCAACAUUCCGAGGGGACCGUCCCCUCGGUAAUAGCGAAUGGGACCCA
self-cleavage: 0.161
//
Entry sequence: GGCCGCCAUGGUCCCAGCCUCCUCGCUGGCGCCGGCUGGGCACCAUUCCGAGGGGACCGUCCCCUCGGUAAUGGCGAAUGGGACCCA
self-cleavage: 0.0519
//
Entry sequence: GGCCGGCAUGGUCCCAGCCUCCUCGCUGGCGCCGGCUGGGCAACAUUUCGAGGGGACCGUCCCCUCGGUAAUGGCGAAUGGAACCCA
self-cleavage: 0.532
//
Entry sequence: GGCCGGCAUGGUCCCAGCCUCCUCGCUGGCGCCGGCUGGGCAACAUUCCGAGGGGACCGUCCCCUCGGUAAUGGAGAAUCGGACCCA
self-cleavage: 0.18
//
Entry sequence: GGCCGGCAUGGACCCAGCCUCCUCGCUGGCGCCGGCUGGGCAACAUUUCGAGGGGACCGUCCCCUCGGUAAUGGCGAAUGGGACCCA
self-cleavage: 0.277
//
Entry sequence: GGCCGGCAUGGUCCCAGCCUCCUCGCUGGCGCCGUCUGGGCAACAUUCCGAGGGGACCGUCCCCUCGGUAAUGGCGAACGGGACCCA
self-cleavage: 0.0992
//
Entry sequence: GGCCGGCAUGGUCCCAGCAUCCUCGCUGGCGCCGGCUGUGCAACAUUCCGAGGGGACCGUCCCCUCGGUAAUGGCGAAUGGGACCCA
self-cleavage: 0.0639
//
Entry sequence: GGCCGGCAUGGUCCCAGCCUCCUCGCUGGCGCCGGCUGGGCAACAUUCCGAGGGGACCGUCCCCUCGGUCAUGGCGAAUGGGACCCU
self-cleavage: 1.04
